folding stability dG listing for selected variants.
B1: r11_951_TrROS_Hall (parent)
chain: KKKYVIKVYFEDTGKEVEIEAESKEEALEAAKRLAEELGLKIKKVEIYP

# Variants of: B1
# procedure text: folding stability dG (cDNA display proteolysis); higher = more stable
# settings: PBS, room temperature
Answer format: numeric, kcal/mol implied, no suffix.

Worked cases, folding stability dG given:
> print(dat)
   mutation.notation           metric.name  endpoint.value
1               L28R  folding stability dG            4.23
2               E46N  folding stability dG            4.19
3               R33S  folding stability dG             4.2
4               A31M  folding stability dG             4.4

Inquiry: Which folding stability dG reading was recorded for the variant I19Y ?
Reply text: 4.49

Inquiry: Likewise for R33H ?
Reply text: 4.18

Inquiry: Likewise for E20P ?
Reply text: 4.29

Inquiry: Likewise for E11I ?
Reply text: 4.86

Inquiry: Likewise for T13I ?
Reply text: 4.41

Inquiry: Likewise for L38V ?
Reply text: 4.3

Inquiry: Likewise for E26W ?
Reply text: 4.92

Inquiry: Likewise for L40G ?
Reply text: 3.56

src = the MegaScale stability set (Tsuboyama et al. 2023)
